Each entry below carries its recorded log10(IC50).
Tested on: MIAPACA
Assay: Cell proliferation assay (Sulforhodamine B), IC50
Format: cell-based
Conditions: Homo sapiens, MIA PaCa-2, 96 hours of treatment, read-out: IC50 96 h mean ± SD
quantity.name: log10(IC50) (log10 of the value in nM)

[
  {
    "compound": "CCC(C)(C)C(=O)O[C@H]1C[C@@H](C)C=C2C=C[C@H](C)[C@H](CC[C@@H]3C[C@@H](O)CC(=O)O3)[C@H]21 [SIM, Simvastatin]",
    "target": "MIAPACA",
    "recorded.number": 3.30
  },
  {
    "compound": "CCCC(CCC)C(=O)O [VPA, 2-propylpentanoic acid]",
    "target": "MIAPACA",
    "recorded.number": 5.88
  },
  {
    "compound": "Nc1ccccc1NC(=O)c1ccc(CNC(=O)OCc2cccnc2)cc1 [MS-275]",
    "target": "MIAPACA",
    "recorded.number": 1.30
  },
  {
    "compound": "CC[C@H](C)C(=O)O[C@H]1C[C@@H](C)C=C2C=C[C@H](C)[C@H](CC[C@@H]3C[C@@H](O)CC(=O)O3)[C@H]21 [LOV, Lovastatin]",
    "target": "MIAPACA",
    "recorded.number": 3.48
  },
  {
    "compound": "CC(C)c1c(C(=O)Nc2ccccc2)c(-c2ccccc2)c(-c2ccc(F)cc2)n1CC[C@@H](O)C[C@@H](O)CC(=O)O [ATOR, Atorvastatin]",
    "target": "MIAPACA",
    "recorded.number": 3.26
  },
  {
    "compound": "Cc1[nH]c2ccccc2c1CCNCc1ccc(/C=C/C(=O)NO)cc1 [PAN]",
    "target": "MIAPACA",
    "recorded.number": 1.20
  }
]
